Reference for the values: paper PMC7499187

Assay info: Noncompartmental analysis of absolute bioavailability study JPBS
Assay type: in vivo, human
Condition parameters: human, plasma, oral, 200 mg
Measurement kind: bioavailability (%)
Please reply with the bare figure in % and do not write the unit itself.

Looking for the measured bioavailability of CCN1CCN(Cc2ccc(Nc3ncc(F)c(-c4cc(F)c5nc(C)n(C(C)C)c5c4)n3)nc2)CC1 , can you help?
44.8

----------
Assay info: Semimechanistic population PK model
Assay type: in vivo, human
Condition parameters: human, plasma, oral, Km for saturable absorption, final population model, Estimate (%SEE)
Measurement kind: Km (µM)
Please reply with the bare figure in µM and do not write the unit itself.

Looking for the measured Km of CCN1CCN(Cc2ccc(Nc3ncc(F)c(-c4cc(F)c5nc(C)n(C(C)C)c5c4)n3)nc2)CC1 [Abemaciclib] , can you help?
52.7
